Molecular target: IDH1 R132H (Homo sapiens, UniProt O75874, R132H)
Sequence (O75874 whole entry R132H): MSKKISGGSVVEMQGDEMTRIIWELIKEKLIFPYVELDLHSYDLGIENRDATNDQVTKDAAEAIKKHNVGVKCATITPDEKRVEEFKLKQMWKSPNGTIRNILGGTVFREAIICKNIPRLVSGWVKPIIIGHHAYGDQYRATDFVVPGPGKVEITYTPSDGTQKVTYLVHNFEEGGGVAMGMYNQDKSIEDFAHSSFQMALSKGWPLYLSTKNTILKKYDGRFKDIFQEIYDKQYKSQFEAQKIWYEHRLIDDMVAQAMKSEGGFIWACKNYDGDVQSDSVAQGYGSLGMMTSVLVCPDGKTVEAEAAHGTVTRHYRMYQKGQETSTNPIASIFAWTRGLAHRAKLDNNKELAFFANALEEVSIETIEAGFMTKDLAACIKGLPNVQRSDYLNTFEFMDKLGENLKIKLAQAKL
Assay: In vitro assay for IDH1 R132H inhibitors (NADPH/aKG, resazurin detection)
Type: biochemical
Details: Table 4A; 0.2 μg/ml IDH1 R132H, 50 minutes at room temperature; read-out: IC50 (uM), IDH1 R132H Inhibition
assay.readout: IC50

• O=C(NC1CCCC1)C(c1ccccc1Cl)N(C(=O)Cc1cccs1)c1ccccc1F (centres unmarked) = 0.1 to 1 µM
• Cc1ccccc1C(C(=O)NC1CCCCC1)N(C(=O)c1ccccn1)c1ccccc1F (centres unmarked) = 1 to 10 µM
• Cc1ccccc1C(C(=O)NC1CCCCC1)N(Cc1ccccc1)C(=O)Cc1cccs1 (centres unmarked) = 1 to 10 µM
• Cc1ccccc1C(C(=O)NC1CCCC1)N(C(=O)Cn1nnc2ccccc21)c1ccccc1F (centres unmarked) = 0.1 to 1 µM
• O=C(NC1CCCCC1)C(c1ccccc1F)N(Cc1cccs1)C(=O)c1ccccn1 (centres unmarked) = 10 to 100 µM
• O=C(NC1CCCC1)C(c1ccccc1)N(C(=O)Cc1cccs1)c1ccccc1 (centres unmarked) = 0.1 to 1 µM
• O=C(NC1CCCCC1)C(c1ccc(-c2ccccc2)cc1)N(C(=O)Cc1cccs1)c1cccc(F)c1 (centres unmarked) = ≥ 100 µM
• Cc1ccc(N(C(=O)c2ccccn2)C(C(=O)NC2CCCCC2)c2ccccc2)cc1F (centres unmarked) = 1 to 10 µM
• O=C(NC1CCCCC1)C(c1ccccc1Cl)N(C(=O)Cc1cccs1)c1ccccc1F (centres unmarked) = 0.1 to 1 µM
• Cc1ccccc1C(C(=O)NC1CCCCC1)N(C(=O)Cc1cccs1)c1ccccc1F (centres unmarked) = 0.1 to 1 µM
• CCOc1cc(C(C(=O)NC2CCCCC2)N(C(=O)Cc2cccs2)c2cccc(F)c2)ccc1OC (centres unmarked) = ≥ 100 µM
• COc1cccc(N(C(=O)Cc2cccs2)C(C(=O)NC2CCCC2)c2ccccc2)c1 (centres unmarked) = 0.1 to 1 µM
• O=C(NC1CCCCC1)C(c1ccccc1Cl)N(C(=O)c1ccccn1)c1ccccc1F (centres unmarked) = 1 to 10 µM
• CC(C)(C)NC(=O)C(c1ccccc1)N(C(=O)Cc1cccs1)c1ccccc1 (centres unmarked) = 1 to 10 µM
• O=C(Cc1cccs1)N(c1cccc(F)c1)C1(C(=O)NC2CCCC2)CCCCC1 = 1 to 10 µM
• Cc1ccccc1C(C(=O)NC1CCCC1)N(C(=O)CNS(=O)(=O)c1ccccc1)c1cccc(F)c1 (centres unmarked) = 0.1 to 1 µM
• O=C(Cc1cccs1)N(c1cccc(F)c1)C1(C(=O)NC2CCCC2)CCC1 = ≥ 100 µM

###

IC50 values, listed per item
Molecular target: IDH1 R132H (Homo sapiens, UniProt O75874, R132H)
Assay: In vitro assay for IDH1 R132H inhibitors (NADPH/aKG, resazurin detection)
Assay type: biochemical
Conditions: Table 4B; 0.2 μg/ml IDH1 R132H, 50 minutes at room temperature; read-out: IC50, IDH1 R132H Inhibition
assay.readout: IC50

* COC(=O)NCC(=O)N(c1cccc(F)c1)C(C(=O)NC1CCCCC1)c1ccccc1C (centres unmarked) [Compound 334] | ≤ 100 nM
* Cc1ccccc1C(C(=O)NC1CCCOC1)N(C(=O)Cc1cccs1)c1cccc(F)c1 (centres unmarked) [Compound 200] | 100 to 1000 nM
* Cc1ccccc1C(C(=O)NC1CC(F)(F)C1)N(C(=O)CNc1ncccc1F)c1cccc(F)c1 (centres unmarked) [Compound 379] | 100 to 1000 nM
* Cc1ccccc1C(C(=O)NC1CCCCC1)N(Cc1cccs1)C(=O)OCc1ccccc1 (centres unmarked) [Compound 390] | 1000 to 10000 nM
* Cc1ccccc1C(C(=O)NC1CCCCC1)N(C(=O)COCc1ccccn1)c1cccc(F)c1 (centres unmarked) [Compound 281] | 100 to 1000 nM
* Cc1ccccc1C(C(=O)NC1CCCCC1)N(C(=O)CNc1ccc(-c2ncon2)cc1)c1cccc(F)c1 (centres unmarked) [Compound 291] | ≤ 100 nM
* Cc1ccccc1C(C(=O)NC1CCCCC1)N(C(=O)CNc1ccc(S(C)(=O)=O)cc1)c1cccc(F)c1 (centres unmarked) [Compound 258] | 100 to 1000 nM
* Cc1ccccc1C(C(=O)NC1CCC(F)(F)CC1)N(C(=O)COc1ccccn1)c1cccc(F)c1 (centres unmarked) [Compound 331] | ≤ 100 nM
